# protocol: Plasma stability assay (human plasma)
# Type: in vitro ADME
# condition-notes: human plasma (sodium citrate 3.7%), 37°C, LC-MS quantification, read-out: % intact compound remaining after 6h incubation Human plasma
# Description: In order to determine the stability of selected compounds of the invention in human and mouse plasma, a plasma stability assay was carried out. Such plasma stability assay measures degradation of compounds of the present invention in blood plasma. […] Quantitation was performed by external matrix calibration with internal standard using the integrated analyte signals. […] Carry-over was evaluated by analysis of a blank sample (20% acetonitrile) after the highest calibration sample. […]
Where a SMILES comes first, the peptide text is derived from it. Bridges are numbered along the chain shown (N, C = ends). [ ]: non-standard residue; d: D form. The star is where a group is joined. DOTA = O=C(O)CN1CCN(CC(=O)O)CCN(CC(=O)*)CCN(CC(=O)O)CC1; Phe(4-CONH2) = NC(=O)c1ccc(C[C@H](N)C(=O)O)cc1; Pro(cis-4-F) = O=C(O)[C@@H]1C[C@H](F)CN1; Dopa = N[C@@H](Cc1ccc(O)c(O)c1)C(=O)O; Hyp = O=C(O)[C@@H]1C[C@@H](O)CN1; Butoxycarbonyl = CCCCOC(=O)*; Orn = NCCC[C@H](N)C(=O)O; Nva = CCC[C@H](N)C(=O)O; Pentanoyl = CCCCC(=O)*
Listed compounds paired with reported remaining at 6 h, 9.8 µM

Completed entries (count: 2):
* CCCCOC(=O)N[C@H]1CSSC[C@@H](C(N)=O)NC(=O)[C@H](CCC)NC(=O)[C@H]([C@@H](C)CC)NC(=O)[C@@H]2C[C@@H](O)CN2C(=O)[C@@H]2C[C@H](F)CN2C(=O)[C@H](Cc2ccccc2)NC(=O)[C@H](Cc2ccc(O)c(O)c2)NC(=O)[C@H](CCCCNC(=O)CN2CCN(CC(=O)O)CCN(CC(=O)O)CCN(CC(=O)O)CC2)NC(=O)[C@H]([C@@H](C)O)NC1=O [UPAR-249] (Butoxycarbonyl-CTK(DOTA)[Dopa]F[Pro(cis-4-F)][Hyp]I[Nva]C-NH2; disulfide 1-10) | 64%
* CCCCC(=O)N[C@H]1CSSC[C@@H](C(N)=O)NC(=O)[C@H](CCC)NC(=O)[C@H]([C@@H](C)CC)NC(=O)[C@@H]2C[C@@H](O)CN2C(=O)[C@@H]2CCCN2C(=O)[C@H](Cc2ccccc2)NC(=O)[C@H](Cc2ccc(O)cc2)NC(=O)[C@H](CCCCNC(=O)CN2CCN(CC(=O)O)CCN(CC(=O)O)CCN(CC(=O)O)CC2)NC(=O)[C@H]([C@@H](C)O)NC1=O [UPAR-301] (Pentanoyl-CTK(DOTA)YFP[Hyp]I[Nva]C-NH2; disulfide 1-10) | > 95%

Query compound follows.
Problem: Give remaining at 6 h, 9.8 µM for the following compound: CCCCOC(=O)N[C@H]1CSSC[C@@H](C(N)=O)NC(=O)[C@H](CCC)NC(=O)[C@H]([C@@H](C)CC)NC(=O)[C@@H]2C[C@@H](O)CN2C(=O)[C@@H]2C[C@H](F)CN2C(=O)[C@H](Cc2ccccc2)NC(=O)[C@H](Cc2ccc(C(N)=O)cc2)NC(=O)[C@H](CCCNC(=O)CN2CCN(CC(=O)O)CCN(CC(=O)O)CCN(CC(=O)O)CC2)NC(=O)[C@H]([C@@H](C)O)NC1=O [UPAR-276] (Butoxycarbonyl-CT[Orn](DOTA)[Phe(4-CONH2)]F[Pro(cis-4-F)][Hyp]I[Nva]C-NH2; disulfide 1-10)
Solution: > 95%
